Molecular target: Human GLP-1 receptor (Homo sapiens, UniProt P43220)
Construct: expressed in transfected cells
Sequence (P43220 24-463): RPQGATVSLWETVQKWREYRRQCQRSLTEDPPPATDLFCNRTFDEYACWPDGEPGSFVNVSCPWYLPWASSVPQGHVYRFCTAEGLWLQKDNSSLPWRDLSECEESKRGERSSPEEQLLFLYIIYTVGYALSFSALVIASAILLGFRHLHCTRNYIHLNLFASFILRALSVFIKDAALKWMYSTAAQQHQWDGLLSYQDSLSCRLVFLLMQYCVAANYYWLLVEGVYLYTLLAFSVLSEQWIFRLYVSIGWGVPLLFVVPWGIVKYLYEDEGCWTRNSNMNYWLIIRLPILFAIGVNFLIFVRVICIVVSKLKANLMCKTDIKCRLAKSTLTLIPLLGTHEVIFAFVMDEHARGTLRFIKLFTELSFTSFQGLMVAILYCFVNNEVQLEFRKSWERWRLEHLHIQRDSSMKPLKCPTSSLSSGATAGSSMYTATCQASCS
Assay: Measurement of GLP-1 receptor agonist activity (cAMP assay);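 further: EC50 of cAMP increase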
Type: cell-based
Settings: hGLP-1R/CHO-K1 cells, cAMP increase, 37° C. 1 hour
Answer each item with its documented pEC50.
Kindly note that pEC50 refers to -log10 of the concentration in mol/L and answer with the value alone.

Qu. Name the reported pEC50 value associated with the compound C[C@H]1c2cc(OCc3ccc(Cl)cc3F)c(Cl)cc2CCN1Cc1nc2ccc(C(=O)O)cc2n1C[C@@H]1CCO1
Ans. 8.80

Qu. Queued: C[C@H]1c2cc(OCc3c(F)cc(Cl)cc3F)c(C(F)(F)F)cc2CCN1Cc1nc2ccc(C(=O)O)nc2n1C[C@@H]1CCO1
Ans. 9.27

Qu. Follow-up item: C[C@H]1c2cc(OCc3ccc(Cl)cc3F)c(C(F)(F)F)cc2CCN1Cc1nc2ccc(C(=O)O)nc2n1C[C@@H]1CCO1
Ans. 9.18

Qu. Would you kindly repeat that for Cc1cc(F)cc(C)c1COc1cc2c(cc1C(F)(F)F)CCN(Cc1nc3ccc(C(=O)O)cc3n1C[C@@H]1CCO1)C2 ?
Ans. 7.88

Qu. Another: O=C(O)c1ccc2nc(CN3CCc4cc(C(F)(F)F)c(OCc5ccc6c(c5)CCC6)cc4C3)n(C[C@@H]3CCO3)c2c1
Ans. 7.40

Qu. Item: C[C@H]1c2cc(OCc3ccc(C#N)cc3F)c(C(F)(F)F)cc2CCN1Cc1nc2ccc(C(=O)O)nc2n1C[C@@H]1CCO1
Ans. 8.48

Qu. Lookup C[C@H]1c2cc(OCc3ccc(C#N)cc3F)c(Cl)cc2CCN1Cc1nc2ccc(C(=O)O)cc2n1C[C@@H]1CCO1
Ans. 8.22

Qu. Another compound to look at: C[C@H]1c2cc(OCc3ccc(C4CC4)cc3)c(C(F)(F)F)cc2CCN1Cc1nc2ccc(C(=O)O)nc2n1C[C@@H]1CCO1
Ans. 8.05

Qu. Queued: O=C(O)c1ccc2nc(CN3CCc4cc(C(F)(F)F)c(OCc5ccc(OC(F)F)cc5F)cc4C3)n(C[C@@H]3CCO3)c2c1
Ans. 8.37

Qu. Same lookup for O=C(O)c1ccc2nc(CN3CCc4cc(C(F)(F)F)c(OCc5ccc(F)c(F)c5F)cc4C3)n(C[C@@H]3CCO3)c2c1 , please.
Ans. 7.55

Qu. O=C(O)c1ccc2nc(CN3CCc4cc(C(F)(F)F)c(OCc5ccccc5-c5ccccc5)cc4C3)n(C[C@@H]3CCO3)c2c1 ?
Ans. 8.11

Qu. What do you get for Cc1c(Cc2nc3ccc(C(=O)O)cc3n2C[C@@H]2CCO2)ccc2nc(C(F)(F)F)c(OCc3ccc(Cl)cc3F)nc12 ?
Ans. 9.06

Qu. Query C[C@H]1c2cc(OCc3ccccc3Cl)c(C(F)(F)F)cc2CCN1Cc1nc2ccc(C(=O)O)nc2n1C[C@@H]1CCO1 next
Ans. 8.48
